Test system: RPMI-8226 leukemia
Test: NCI tumour cell line growth inhibition, 48 h
Collected TGI values appear next to each entry.
Parameter: TGI (µM)

INSERT INTO assay_data (molecule, parameter, relation_symbol, observed_result) VALUES
  ('COc1cc(NS(C)(=O)=O)ccc1NCc1c2ccccc2nc2ccccc12', 'TGI', '=', 71.1),
  ('COC(=O)c1ccccc1/C=C1\Cc2ccc3c(c2C1=O)CCCC3', 'TGI', '>', 100),
  ('OC12c3ccccc3C1CCCCCCCCCC21OCCO1 (stereo not given)', 'TGI', '>', 100),
  ('CCOC(=O)[C@@]1(C)CC(O)C(=O)N1C (stereo not given in full)', 'TGI', '>', 100),
  ('CCOC(=O)C12C(C(=O)OC)=C(C)N(NC(=O)Nc3ccccc3)C1(N)N(NC(=O)Nc1ccccc1)C(C)=C2C(=O)OC (stereo not given)', 'TGI', '=', 74),
  ('CNC(=O)SCC(NC(=O)CCC(N)C(=O)O)C(=O)NCC(=O)O (stereo not given)', 'TGI', '>', 100),
  ('C[C@H]1CNC(=O)c2cnn3ccc(nc23)N[C@H](C)c2cc(F)ccc2O1', 'TGI', '=', 41.6),
  ('Cc1nc2ccccn2c1NC(=O)NNC(=S)Nc1ccc(F)cc1', 'TGI', '>', 100),
  ('COC(=O)C1=C(O)CCCC(C2CCCCC(=O)C2C(=O)OC)=C1 (stereo not given)', 'TGI', '>', 100),
  ('COC(=O)[C@@H](C)[C@H]1CC[C@@](C)(CCC2=C(C)CC3C=C(C)CCC3C2(C)C)OO1 (stereo not given in full)', 'TGI', '=', 5.98);

---

System: OVCAR-3 ovarian
Experiment: NCI tumour cell line growth inhibition, 48 h; in the data active = GI50 below about 0.43 µM; inactive = the rest
Possible outcomes: True = active, False = inactive

INSERT INTO results (compound_structure, target_or_test_system, qualitative_label) VALUES
  ('O=C(CI)Nc1ccc(O)c2ccccc12', 'OVCAR-3 ovarian', 'False'),
  ('COC(=O)c1c2c(c(C)[n+]([O-])c1C)C(=O)C=C(NCc1cccc(Cl)c1)C2=O', 'OVCAR-3 ovarian', 'True'),
  ('O=C(c1ccccc1)c1c(C(F)(F)F)n([O-])c2cc(C(F)(F)F)ccc2[n+]1=O', 'OVCAR-3 ovarian', 'False');

---

System: SK-MEL-2 melanoma
Test: NCI tumour cell line growth inhibition, 48 h
Parameter: TGI

INSERT INTO results (compound, observed_result) VALUES
  ('CN(C)CCNC(=O)c1cccc2nc3c(C(=O)NCCN(C)C)cccc3nc12', '4.16 µM'),
  ('COc1cccc2cc(C(=O)Nc3ccccc3)c(=N)oc12', '> 100 µM'),
  ('CCCCc1ccc(Nc2nc(Cl)c3c(ncn3C3CC(Oc4ccc(C)cc4)C(COc4ccc(C)cc4)O3)n2)cc1 (stereo not drawn)', '> 100 µM'),
  ('COC(=O)C1CCC(=O)N1C(c1cc(OC)c(OC)c(OC)c1)c1cccc2ccccc12 (stereo not drawn)', '> 100 µM'),
  ('CCN(CC)CC1CN=C(N)O1 (stereo not drawn)', '> 100 µM'),
  ('OC12c3ccccc3C1CCCCCCCCCC21OCCO1 (stereo not drawn)', '> 100 µM'),
  ('O=C(C#Cc1ccccc1)C1=Cc2ccccc2OC1', '11.7 µM'),
  ('O=C(C/C(=N/O)C(F)(F)F)c1cccs1', '> 100 µM'),
  ('CCCCCCCC/C=C1\CCC(CN2CCOCC2)C1=O (stereo not drawn)', '28.8 µM'),
  ('C=C1SC(=Nc2ccccc2Cl)N(C(=O)c2sc3ccccc3c2Cl)C12CCCCC2', '58.8 µM'),
  ('COC(=O)C1CC(OC(C)=O)C=C2C(=O)CCC21 (stereo not drawn)', '79.9 µM'),
  ('CCC(CC)(CO)CNc1cc(Cl)nc(N)n1', '> 100 µM'),
  ('O=C(c1cccs1)N1CCCN(C(=O)c2cccs2)C1=S', '> 100 µM'),
  ('COC(=O)c1ccccc1/C=C1\Cc2ccc3c(c2C1=O)CCCC3', '> 100 µM'),
  ('COc1cc2c(cc1Oc1c(Oc3c(O)c(OC)cc4c3C(CC(C)C)N(C)CC4)c(OC)cc3c1C(CC(C)C)N(C)CC3)C(CC(C)C)N(C)CC2 (stereo not drawn)', '3.67 µM'),
  ('Cc1nc(/C=C2\C(=O)C=Cc3ccccc32)c(O)o1', '> 100 µM'),
  ('COC(=O)C(Cc1ccc(N(C)C)cc1)(NC(=O)c1ccccc1)P(=O)(OC)OC (stereo not drawn)', '> 100 µM'),
  ('Nc1ccc(COC(O)CN2CCCCC2)cc1[N+](=O)[O-] (stereo not drawn)', '> 100 µM'),
  ('CCOC(=O)C1=C(C)N(NC(N)=O)C2(N)N(NC(N)=O)C(C)=C(C(=O)OCC)C12C(=O)OCC (stereo not drawn)', '> 100 µM'),
  ('O=C(CI)Nc1ccc(O)c2ccccc12', '9.22 µM'),
  ('COc1cc(NS(C)(=O)=O)ccc1NCc1c2ccccc2nc2ccccc12', '> 100 µM'),
  ('COc1ccc2c(c1)NC1(CCN(CCCC(=O)c3ccc(F)cc3)CC1)N=N2', '39.8 µM'),
  ('COc1ccc(-c2ncn(C[Si](C)(C)C)c2-c2ccc(OC)cc2)cc1', '20.5 µM');
